- measurement_protocol: Mouse PK study
- Format: in vivo
- condition_description: mouse, plasma; PO 40 mg/kg, male CD1 mice; read-out: AUC0-24
- Protocol: Male CD1 mice (5-8 weeks old) were administered intravenously (IV) at a dose of 1 mg/kg by tail vein bolus or orally (PO) at doses of 10 mg/kg and 40 mg/kg by gavage. The compound was formulated in a vehicle of 10% DMSO + 10% Solutol HS15 + 80% saline. […] Blood samples were centrifuged at 3500 g for 5 min, and the resulting plasma was analyzed by an LC-MS/MS method. The PK parameters were calculated using WinNonlin software (Phoenix®, version 8.3) through non-compartmental analysis methods.
The entries below come with measured AUC(0-t) at 24 h values attached.
Give the value in µg·h/mL but do not write µg·h/mL after it.

O=C1CCN(c2ccc(N3CCO[C@H](C(=O)N4CCN(c5ccc(Nc6ncc7c(n6)-c6ccc(Cl)cc6C(c6c(F)cccc6F)=NC7)cc5)CC4)C3)nc2)C(=O)N1 [Compound A307]    78.9

Now consider a different molecule.
Item: O=C1CCN(c2ccc(N3CCC4(CC3)CC(N3CCN(C56CC(Nc7ncc8c(n7)-c7ccc(Cl)cc7C(c7c(F)cccc7F)=NC8)(C5)C6)C(=O)C3)CO4)nc2)C(=O)N1 (centres unmarked) [Compound A321] | AUC(0-t) at 24 h: 137

* * *

- system_tested: AURKA (Homo sapiens, UniProt O14965)
- Construct: endogenous in cells; host or cells: Jurkat cells
- Sequence (O14965 whole entry): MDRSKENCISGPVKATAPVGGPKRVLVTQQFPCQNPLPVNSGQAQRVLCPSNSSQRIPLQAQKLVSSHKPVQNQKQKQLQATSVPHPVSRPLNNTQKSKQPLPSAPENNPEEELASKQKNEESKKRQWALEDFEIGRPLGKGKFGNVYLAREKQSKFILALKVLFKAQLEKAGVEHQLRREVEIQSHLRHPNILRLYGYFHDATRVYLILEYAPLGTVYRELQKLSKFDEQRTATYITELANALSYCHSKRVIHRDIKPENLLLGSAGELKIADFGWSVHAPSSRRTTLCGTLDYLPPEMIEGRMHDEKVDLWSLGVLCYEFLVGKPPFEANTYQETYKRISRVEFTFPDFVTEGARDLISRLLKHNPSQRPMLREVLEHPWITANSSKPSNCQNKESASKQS
- Assay type: cell-based
- condition_description: 1 µM compound, Jurkat cells, 24 h, Table 2
quantity_kind: Percentage of AURKA Degradation Induced by 1 µM Compound in Jurkat Cells

Answered cases to consult:
CN(C)Cc1ccc2c(c1)C(c1c(F)cccc1F)=NCc1cnc(Nc3ccc(C(=O)NC4CC5(CCN(c6ccc(N7CCC(=O)NC7=O)cn6)CC5)C4)cc3)nc1-2    +++ (Degradation > 70%)
O=C1CCN(c2cccc(N3CCN(CCOc4cccc(Nc5ncc6c(n5)-c5ccc(C7CC7)cc5C(c5c(F)cccc5F)=NC6)c4)CC3)c2)C(=O)N1    +++ (Degradation > 70%)
O=C1CCN(c2ccc(N3CCN(CCNc4ccc(Nc5ncc6c(n5)-c5ccc(Cl)cc5C(c5c(F)cccc5F)=NC6)cc4)CC3)cc2)C(=O)N1    + (Degradation ≤ 30%)
O=C1CCN(c2ccc(N3CCN(CC4(F)CN(c5ccc(Nc6ncc7c(n6)-c6ccc(Cl)cc6C(c6c(F)cccc6F)=NC7)cc5)C4)CC3)nc2)C(=O)N1    +++ (Degradation > 70%)
Cc1c(N2CCC(CN3Cc4ccc(Nc5ncc6c(n5)-c5ccc(Cl)cc5C(c5c(F)cccc5F)=NC6)cc4C3)CC2)cccc1N1CCC(=O)NC1=O    +++ (Degradation > 70%)
O=C1CCN(c2ccc(N3CCC(C(=O)N4CCN(c5ccc(Nc6ncc7c(n6)-c6ccc(Cl)cc6C(c6nccs6)=NC7)cc5)CC4)CC3)nc2)C(=O)N1    +++ (Degradation > 70%)

Now consider a different compound.
Item: CN1C(=O)CCN(c2ccc(N3CCC4(CC3)CC(NC(=O)c3ccc(Nc5ncc6c(n5)-c5ccc(Cl)cc5C(c5c(F)cccc5F)=NC6)cc3)C4)nc2)C1=O | Percentage of AURKA Degradation Induced by 1 µM Compound in Jurkat Cells: + (Degradation ≤ 30%)
